Tested on: Rattus norvegicus
Assay: Biodistribution in Rat liver after 30 minutes of iv administration
Format: ADME, organism-based
Details: in vivo, 0.5 h
reported-endpoint: Biodistribution (%)
Provide the reading as a plain figure in %.

(Q) Print Rattus norvegicus Biodistribution for Nc1c(I)cc(I)c(CCCCCCCCCCCC(=O)OCC(COC(=O)CCCCCCCCCCCc2c(I)cc(I)c(N)c2I)OC(=O)CCCCCCCCCCCc2c(I)cc(I)c(N)c2I)c1I .
(A) 5.24

(Q) Please indicate recorded Biodistribution of Nc1c(I)cc(I)c(CCCCCCCCCCCCCCCCC(=O)OCC(COC(=O)CCCCCCCCCCCCCCCCc2c(I)cc(I)c(N)c2I)OC(=O)CCCCCCCCCCCCCCCCc2c(I)cc(I)c(N)c2I)c1I measured with Rattus norvegicus.
(A) 5.28

(Q) State recorded Biodistribution with Rattus norvegicus, entry CCCCCCCCCCCCCCCC(=O)OC(COC(=O)CCCCCCCCCCCc1c(I)cc(I)c(N)c1I)COC(=O)CCCCCCCCCCCc1c(I)cc(I)c(N)c1I , no comment.
(A) 4.24

(Q) Find the measured Biodistribution of CCC(Cc1c(I)cc(I)c(N)c1I)C(=O)OCC(COC(=O)C(CC)Cc1c(I)cc(I)c(N)c1I)OC(=O)C(CC)Cc1c(I)cc(I)c(N)c1I (stereo unspecified) with Rattus norvegicus as test system.
(A) 2.79

(Q) Provide Rattus norvegicus Biodistribution reading for Nc1c(I)cc(I)c(CCC(=O)OCC(COC(=O)CCc2c(I)cc(I)c(N)c2I)OC(=O)CCc2c(I)cc(I)c(N)c2I)c1I .
(A) 10.4

(Q) # return Biodistribution of CCCCCCCCCCCCCCCC(=O)OC(COC(=O)CCCCCCCCCCCCCCCCc1c(I)cc(I)c(N)c1I)COC(=O)CCCCCCCCCCCCCCCCc1c(I)cc(I)c(N)c1I (system: Rattus norvegicus)
(A) 4.2

---

Test system: Rattus norvegicus
Assay: Compound (125I labeled) was evaluated for the total radioactivity in stacking gel at 30 min after intravenous administration.
Type: functional
Give Total radioactivity for every item shown.
Report as a plain number; the unit % is understood.

(Q) Retrieve Total radioactivity on Rattus norvegicus; query CCCCCCCCCCCCCCCC(=O)OC(COC(=O)CCc1c(I)cc(I)c(N)c1I)COC(=O)CCc1c(I)cc(I)c(N)c1I
(A) 19

(Q) Please indicate recorded Total radioactivity of CCCCCCCCCCCCCCCC(=O)OC(COC(=O)C(CC)Cc1c(I)cc(I)c(N)c1I)COC(=O)C(CC)Cc1c(I)cc(I)c(N)c1I (stereo not drawn) measured with Rattus norvegicus.
(A) 6.8

(Q) Report value: Total radioactivity, system: Rattus norvegicus, molecule: Nc1c(I)cc(I)c(CCC(=O)OCC(COC(=O)CCc2c(I)cc(I)c(N)c2I)OC(=O)CCc2c(I)cc(I)c(N)c2I)c1I
(A) 20.2

---

Tested on: Rattus norvegicus
Assay: Compound was evaluated for the lipid soluble radioactivity extracted from rat plasma at 24 hr after intravenous administration.
Type: functional
I'd appreciate it if you could supply Extracted values for the items below.
Give the quantity in %, number only.

(Q) Tell me its Extracted on Rattus norvegicus: CCCCCCCCCCCCCCCC(=O)OC(COC(=O)CCCCCCCCCCCCCCCCc1c(I)cc(I)c(N)c1I)COC(=O)CCCCCCCCCCCCCCCCc1c(I)cc(I)c(N)c1I
(A) 44.1

(Q) Tell me its Extracted on Rattus norvegicus: CCCCCCCCCCCCCCCC(=O)OC(COC(=O)CCc1c(I)cc(I)c(N)c1I)COC(=O)CCc1c(I)cc(I)c(N)c1I
(A) 63.7

(Q) Enter recorded Extracted with Rattus norvegicus for Nc1c(I)cc(I)c(CCCCCCCCCCCCCCCCC(=O)OCC(COC(=O)CCCCCCCCCCCCCCCCc2c(I)cc(I)c(N)c2I)OC(=O)CCCCCCCCCCCCCCCCc2c(I)cc(I)c(N)c2I)c1I here.
(A) 54.2

(Q) Give Extracted for CCC(Cc1c(I)cc(I)c(N)c1I)C(=O)OCC(COC(=O)C(CC)Cc1c(I)cc(I)c(N)c1I)OC(=O)C(CC)Cc1c(I)cc(I)c(N)c1I (stereo not drawn) tested on Rattus norvegicus.
(A) 83.4

(Q) Name the recorded Extracted of Nc1c(I)cc(I)c(CCC(=O)OCC(COC(=O)CCc2c(I)cc(I)c(N)c2I)OC(=O)CCc2c(I)cc(I)c(N)c2I)c1I , assay system Rattus norvegicus.
(A) 83.3

(Q) Please report the measured Extracted for CCCCCCCCCCCCCCCC(=O)OC(COC(=O)C(CC)Cc1c(I)cc(I)c(N)c1I)COC(=O)C(CC)Cc1c(I)cc(I)c(N)c1I (stereo not drawn) tested on Rattus norvegicus.
(A) 82.1

(Q) Please indicate recorded Extracted of CCCCCCCCCCCCCCCC(=O)OC(COC(=O)Cc1c(I)cc(I)c(N)c1I)COC(=O)Cc1c(I)cc(I)c(N)c1I measured with Rattus norvegicus.
(A) 67

(Q) Given CCCCCCCCCCCCCCCC(=O)OC(COC(=O)CCCCCCCCCCCc1c(I)cc(I)c(N)c1I)COC(=O)CCCCCCCCCCCc1c(I)cc(I)c(N)c1I , report its Extracted on Rattus norvegicus.
(A) 52

---

Assignment: determine reported Biodistribution for the given compounds.
Tested on: Rattus norvegicus
Assay: Biodistribution in Rat heart after 30 minutes of iv administration
Type: ADME, organism-based
Details: in vivo, 0.5 h

(Q) Param request: Biodistribution | system Rattus norvegicus | item CCCCCCCCCCCCCCCC(=O)OC(COC(=O)CCCCCCCCCCCCCCCCc1c(I)cc(I)c(N)c1I)COC(=O)CCCCCCCCCCCCCCCCc1c(I)cc(I)c(N)c1I
(A) 0.87%

(Q) Answer with Biodistribution of Nc1c(I)cc(I)c(CCCCCCCCCCCC(=O)OCC(COC(=O)CCCCCCCCCCCc2c(I)cc(I)c(N)c2I)OC(=O)CCCCCCCCCCCc2c(I)cc(I)c(N)c2I)c1I measured for Rattus norvegicus.
(A) 0.65%

(Q) Using Rattus norvegicus as the test system, report measured Biodistribution of Nc1c(I)cc(I)c(CCC(=O)OCC(COC(=O)CCc2c(I)cc(I)c(N)c2I)OC(=O)CCc2c(I)cc(I)c(N)c2I)c1I .
(A) 0.82%

---

Test system: Rattus norvegicus
Experiment: Biodistribution in Rat blood after 30 minutes of iv administration
Type: ADME, organism-based
Settings: in vivo, 0.5 h
Param threshold (2%) applies to Biodistribution; output y when value >= threshold, n when value < threshold.

(Q) Record CCCCCCCCCCCCCCCC(=O)OC(COC(=O)CCCCCCCCCCCc1c(I)cc(I)c(N)c1I)COC(=O)CCCCCCCCCCCc1c(I)cc(I)c(N)c1I ; criterion: Biodistribution no lower than 2%. Met?
(A) n

(Q) Dear colleague, could you confirm whether Nc1c(I)cc(I)c(CCCCCCCCCCCC(=O)OCC(COC(=O)CCCCCCCCCCCc2c(I)cc(I)c(N)c2I)OC(=O)CCCCCCCCCCCc2c(I)cc(I)c(N)c2I)c1I has Biodistribution at or above 2%?
(A) n

(Q) Quick check, Biodistribution >= 2%? CCC(Cc1c(I)cc(I)c(N)c1I)C(=O)OCC(COC(=O)C(CC)Cc1c(I)cc(I)c(N)c1I)OC(=O)C(CC)Cc1c(I)cc(I)c(N)c1I (stereo unspecified)
(A) y

(Q) Is it the case that Nc1c(I)cc(I)c(CCCCCCCCCCCCCCCCC(=O)OCC(COC(=O)CCCCCCCCCCCCCCCCc2c(I)cc(I)c(N)c2I)OC(=O)CCCCCCCCCCCCCCCCc2c(I)cc(I)c(N)c2I)c1I has Biodistribution reaching or exceeding 2%?
(A) y

(Q) Hello, I need to know if Nc1c(I)cc(I)c(CCC(=O)OCC(COC(=O)CCc2c(I)cc(I)c(N)c2I)OC(=O)CCc2c(I)cc(I)c(N)c2I)c1I has measured Biodistribution not below 2%. Thanks!
(A) n

---

Test system: Rattus norvegicus
Assay: Biodistribution in Rat liver after 30 minutes of iv administration
Type: ADME, organism-based
Settings: in vivo, 0.5 h
reported-endpoint: Biodistribution
Just so you know, I need the unit written after the number.

(Q) Answer with reported Biodistribution of CCCCCCCCCCCCCCCC(=O)OC(COC(=O)CCCCCCCCCCCc1c(I)cc(I)c(N)c1I)COC(=O)CCCCCCCCCCCc1c(I)cc(I)c(N)c1I
(A) 4.24%

(Q) Give the measured Biodistribution for Nc1c(I)cc(I)c(CCC(=O)OCC(COC(=O)CCc2c(I)cc(I)c(N)c2I)OC(=O)CCc2c(I)cc(I)c(N)c2I)c1I
(A) 10.38%

(Q) Give a short answer stating reported Biodistribution for Nc1c(I)cc(I)c(CCCCCCCCCCCCCCCCC(=O)OCC(COC(=O)CCCCCCCCCCCCCCCCc2c(I)cc(I)c(N)c2I)OC(=O)CCCCCCCCCCCCCCCCc2c(I)cc(I)c(N)c2I)c1I .
(A) 5.28%

(Q) State its Biodistribution: CCCCCCCCCCCCCCCC(=O)OC(COC(=O)CCCCCCCCCCCCCCCCc1c(I)cc(I)c(N)c1I)COC(=O)CCCCCCCCCCCCCCCCc1c(I)cc(I)c(N)c1I
(A) 4.2%

(Q) Provide Biodistribution value for the following compound: Nc1c(I)cc(I)c(CCCCCCCCCCCC(=O)OCC(COC(=O)CCCCCCCCCCCc2c(I)cc(I)c(N)c2I)OC(=O)CCCCCCCCCCCc2c(I)cc(I)c(N)c2I)c1I
(A) 5.24%

(Q) Tell me Biodistribution reported for CCC(Cc1c(I)cc(I)c(N)c1I)C(=O)OCC(COC(=O)C(CC)Cc1c(I)cc(I)c(N)c1I)OC(=O)C(CC)Cc1c(I)cc(I)c(N)c1I (stereo unspecified)
(A) 2.79%
